Source: ChEMBL document CHEMBL3414564

# ASSAY SYSTEM: Cannabinoid receptor 1 (Rattus norvegicus, UniProt P20272)
# Sequence (P20272 whole entry): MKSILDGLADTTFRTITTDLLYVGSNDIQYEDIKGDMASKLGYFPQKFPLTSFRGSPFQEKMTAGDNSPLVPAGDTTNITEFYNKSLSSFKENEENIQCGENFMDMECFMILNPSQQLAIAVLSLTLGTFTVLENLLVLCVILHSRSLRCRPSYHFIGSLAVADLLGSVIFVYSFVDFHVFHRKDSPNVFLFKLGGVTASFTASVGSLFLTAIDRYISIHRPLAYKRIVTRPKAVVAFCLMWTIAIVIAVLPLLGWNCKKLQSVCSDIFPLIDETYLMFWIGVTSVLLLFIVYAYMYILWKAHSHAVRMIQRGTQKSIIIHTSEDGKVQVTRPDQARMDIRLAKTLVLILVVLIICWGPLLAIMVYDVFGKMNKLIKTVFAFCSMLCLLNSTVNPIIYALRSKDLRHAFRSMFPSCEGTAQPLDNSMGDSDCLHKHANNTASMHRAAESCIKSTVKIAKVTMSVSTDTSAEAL
# METHOD DESCRIPTION: Displacement of [3H]CP-55,940 from CB1 receptor in rat brain membranes incubated for 60 mins
# Assay type: cell membranes, Membrane
VALUE TYPE: pKi
Remember the convention: pKi equals -log10 of concentration in molar.

[Q] # return recorded pKi for input "CC1(C)Oc2cc([C@]34CC5CC(C[C@@](N=C=S)(C5)C3)C4)cc(O)c2[C@@H]2C[C@H](O)CC[C@H]21"
[A] 7.45

====

Listing of entries alongside the reported Ki.
# ASSAY SYSTEM: Cannabinoid receptor 1 (Rattus norvegicus, UniProt P20272)
# METHOD DESCRIPTION: Displacement of [3H]CP-55,940 from CB1 receptor in rat brain membranes
# Format: cell membranes, Membrane
# MEASUREMENT CONTEXT: read-out: Ki
Provide only the numeric value, understood in nM.

[Q] # return recorded Ki for input "CC1(C)Oc2cc([C@]34CC5CC(C[C@@](C#N)(C5)C3)C4)cc(O)c2[C@@H]2C[C@H](O)CC[C@H]21"
[A] 45.8

[Q] # return recorded Ki for input "CC1(C)Oc2cc([C@]34CC5CC(C[C@@](C(N)=O)(C5)C3)C4)cc(O)c2[C@@H]2C[C@H](O)CC[C@H]21"
[A] 297

[Q] # return recorded Ki for input "CC1(C)Oc2cc([C@]34CC5CC(C[C@@](CC#N)(C5)C3)C4)cc(O)c2[C@@H]2C[C@H](O)CC[C@H]21"
[A] 2.6

[Q] # return recorded Ki for input "COC(=O)N[C@]12CC3CC(C1)C[C@](c1cc(O)c4c(c1)OC(C)(C)[C@@H]1CC[C@@H](O)C[C@@H]41)(C3)C2"
[A] 29.1

[Q] # return recorded Ki for input "CC1(C)Oc2cc([C@]34CC5CC(C[C@@](CN=[N+]=[N-])(C5)C3)C4)cc(O)c2[C@@H]2C[C@H](O)CC[C@H]21"
[A] 4.4

[Q] # return recorded Ki for input "CC1(C)Oc2cc([C@]34CC5CC(C[C@@](N=[N+]=[N-])(C5)C3)C4)cc(O)c2[C@@H]2C[C@H](O)CC[C@H]21"
[A] 18.6

====

# ASSAY SYSTEM: Cannabinoid receptor 1 (Rattus norvegicus)
# METHOD DESCRIPTION: Displacement of [3H]CP-55,940 from CB1 receptor in rat brain membranes incubated for 15 mins
# Assay type: cell membranes, Membrane
VALUE TYPE: Ki (nM)
Provide only the numeric value, understood in nM.

[Q] Give measured Ki for "CC1(C)Oc2cc([C@]34CC5CC(C[C@@](N=C=S)(C5)C3)C4)cc(O)c2[C@@H]2C[C@H](O)CC[C@H]21" (Cannabinoid receptor 1 (Rattus norvegicus)).
[A] 96

====

# ASSAY SYSTEM: Cannabinoid receptor 2 (Mus musculus)
# Sequence (P47936 whole entry): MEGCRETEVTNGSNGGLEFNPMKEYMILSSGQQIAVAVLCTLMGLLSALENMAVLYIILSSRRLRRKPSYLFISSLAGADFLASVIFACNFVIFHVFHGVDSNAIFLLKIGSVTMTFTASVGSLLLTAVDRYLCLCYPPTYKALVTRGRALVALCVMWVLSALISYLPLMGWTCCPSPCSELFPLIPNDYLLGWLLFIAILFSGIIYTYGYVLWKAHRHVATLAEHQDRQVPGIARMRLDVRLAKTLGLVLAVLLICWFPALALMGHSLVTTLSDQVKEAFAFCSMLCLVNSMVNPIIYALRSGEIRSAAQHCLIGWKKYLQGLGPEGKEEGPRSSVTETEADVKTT
# METHOD DESCRIPTION: Displacement of [3H]CP-55,940 from mouse CB2 receptor expressed in HEK293 cell membranes
# MEASUREMENT CONTEXT: read-out: Ki
pKi: −log10 of the molar value.
Classification field: Met = pKi at or over 8; Not met = pKi under 8.

CC1(C)Oc2cc([C@]34CC5CC(C[C@@](C(=O)O)(C5)C3)C4)cc(O)c2[C@@H]2C[C@H](O)CC[C@H]21 : Not met
COC(=O)N[C@]12CC3CC(C1)C[C@](c1cc(O)c4c(c1)OC(C)(C)[C@@H]1CC[C@@H](O)C[C@@H]41)(C3)C2 : Met
CC1(C)Oc2cc([C@]34CC5CC(C[C@@](CC#N)(C5)C3)C4)cc(O)c2[C@@H]2C[C@H](O)CC[C@H]21 : Met
CC1(C)Oc2cc([C@]34CC5CC(C[C@@](CN)(C5)C3)C4)cc(O)c2[C@@H]2C[C@H](O)CC[C@H]21 : Not met
CC1(C)Oc2cc([C@]34CC5CC(C[C@@](N=[N+]=[N-])(C5)C3)C4)cc(O)c2[C@@H]2C[C@H](O)CC[C@H]21 : Not met

[Q] Is pKi for "CC1(C)Oc2cc([C@]34CC5CC(C[C@@](CN=[N+]=[N-])(C5)C3)C4)cc(O)c2[C@@H]2C[C@H](O)CC[C@H]21" at or above 8?
[A] Not met

[Q] Is pKi for "CC1(C)Oc2cc([C@]34CC5CC(C[C@@](N)(C5)C3)C4)cc(O)c2[C@@H]2C[C@H](O)CC[C@H]21" at or above 8?
[A] Not met

[Q] Is pKi for "CC1(C)Oc2cc([C@]34CC5CC(C[C@@](C(N)=O)(C5)C3)C4)cc(O)c2[C@@H]2C[C@H](O)CC[C@H]21" at or above 8?
[A] Not met

[Q] Is pKi for "CC1(C)Oc2cc([C@]34CC5CC(C[C@@](C#N)(C5)C3)C4)cc(O)c2[C@@H]2C[C@H](O)CC[C@H]21" at or above 8?
[A] Met
